Target: human CD33 E27A (human, UniProt P20138 18-364)
Sequence (P20138 18-364 E27A limits assumed): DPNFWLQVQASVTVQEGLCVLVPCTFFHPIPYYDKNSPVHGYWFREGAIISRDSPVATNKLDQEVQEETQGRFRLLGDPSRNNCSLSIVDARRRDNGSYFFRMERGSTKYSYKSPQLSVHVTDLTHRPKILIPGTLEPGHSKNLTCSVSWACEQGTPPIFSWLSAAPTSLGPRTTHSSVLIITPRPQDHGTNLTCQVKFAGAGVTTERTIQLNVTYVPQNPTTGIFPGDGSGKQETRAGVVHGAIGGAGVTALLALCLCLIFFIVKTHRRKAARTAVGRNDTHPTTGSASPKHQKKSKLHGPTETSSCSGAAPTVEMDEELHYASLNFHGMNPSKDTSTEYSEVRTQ
Experiment: alanine scan, flow cytometry;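 note: HEK293-T cells transiently expressing single-residue alanine mutants of CD33 (alanine swapped to serine), antibody binding read by fluorescence in duplicate, background-subtracted, expressed relative to wild-type CD33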

binder	Mean % WT Binding (% WT)
Refmab #3 (antibody, V domains shown, Full-length format is human IgG1 Fc silent (PG-LALA); The alanine scan used IgG or Fab) VH: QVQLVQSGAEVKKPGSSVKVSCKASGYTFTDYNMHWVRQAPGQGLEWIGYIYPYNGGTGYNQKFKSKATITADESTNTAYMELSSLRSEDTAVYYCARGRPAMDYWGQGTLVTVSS VL: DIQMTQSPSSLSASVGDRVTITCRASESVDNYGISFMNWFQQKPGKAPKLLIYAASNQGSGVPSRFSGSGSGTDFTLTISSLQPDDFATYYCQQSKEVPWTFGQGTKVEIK	153
Refmab #2 (antibody, V domains shown, Full-length format is human IgG1 Fc silent (PG-LALA); The alanine scan used IgG or Fab) VH: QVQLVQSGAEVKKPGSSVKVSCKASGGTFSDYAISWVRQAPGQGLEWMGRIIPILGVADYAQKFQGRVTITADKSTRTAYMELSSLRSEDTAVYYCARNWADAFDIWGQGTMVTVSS VL: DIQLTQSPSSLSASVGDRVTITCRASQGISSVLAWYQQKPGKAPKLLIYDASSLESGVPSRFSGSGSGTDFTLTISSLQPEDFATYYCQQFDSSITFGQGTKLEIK	111
Refmab #1 (antibody, V domains shown, Full-length format is human IgG1 (Absolute Antibody Ab00283-10.0); The alanine scan used IgG or Fab; also called hP67.6) VH: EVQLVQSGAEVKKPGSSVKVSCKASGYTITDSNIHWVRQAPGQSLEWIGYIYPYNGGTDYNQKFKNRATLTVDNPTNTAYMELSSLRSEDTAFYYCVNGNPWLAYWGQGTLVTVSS VL: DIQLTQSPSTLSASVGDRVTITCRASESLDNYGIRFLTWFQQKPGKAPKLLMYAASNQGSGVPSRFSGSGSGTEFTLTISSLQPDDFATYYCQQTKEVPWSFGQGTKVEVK	82.5
Refmab #4 (antibody, V domains shown, Full-length format is human IgG1 Fc silent (PG-LALA); The alanine scan used IgG or Fab) VH: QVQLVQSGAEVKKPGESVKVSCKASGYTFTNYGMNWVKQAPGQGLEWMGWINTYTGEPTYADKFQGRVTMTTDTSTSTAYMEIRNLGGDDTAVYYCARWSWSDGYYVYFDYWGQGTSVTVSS VL: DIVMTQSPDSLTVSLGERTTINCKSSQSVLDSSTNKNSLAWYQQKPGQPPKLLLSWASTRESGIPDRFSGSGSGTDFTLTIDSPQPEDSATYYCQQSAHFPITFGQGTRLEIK	42.9
